Answer each item with its documented protein stability index.
B1: C19orf51 (parent)
chain: FAPQTGARPSETFARFCKSQESAL

Variants of: B1
Assay: protein stability index of a GFP-peptide fusion (GPS, HEK-293T) (PSI 1-6); higher = more stable;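 note: lentivirally expressed fusions sorted by FACS into six bins by GFP to DsRed ratio, PSI derived from sequencing read proportions per bin multiplied by bin number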
Conditions: c terminus: a fixed tail appended
Numbers only.

Completed entries (count: 5):
[
  {
    "changes": "S19Q",
    "protein stability index": 1.43
  },
  {
    "changes": "A7I",
    "protein stability index": 1.79
  },
  {
    "changes": "F1Y",
    "protein stability index": 4.05
  },
  {
    "changes": "Q20V",
    "protein stability index": 1.73
  },
  {
    "changes": "E11T",
    "protein stability index": 1.96
  }
]

Hey, can you go through the list below and give me protein stability index for every item?
1. G6T
2. C17V
3. A7L

output:
1. 2.51
2. 2.31
3. 2

Give measured protein stability index for every item shown.
1. Q20C
2. R8G
3. E11F
4. E21M

output:
1: 3; 2: 1.94; 3: 3.67; 4: 2.35

For every record below, what is its protein stability index?
1. C17M
2. Q4N
3. A2S
4. R8S
5. L24E

output:
1. 3.12
2. 1.69
3. 1.9
4. 2.38
5. 3.37

Please supply protein stability index for each of the following items, keeping them in order.
1. L24D
2. P3E
3. A23G
4. F16I

output:
[1.88, 2.64, 2.32, 1.89]

input: Return value of protein stability index for input "Q20T" , no commentary.
output: 3.01
